B1: Subtilisin-chymotrypsin inhibitor-2A, P01053 (parent)
chain: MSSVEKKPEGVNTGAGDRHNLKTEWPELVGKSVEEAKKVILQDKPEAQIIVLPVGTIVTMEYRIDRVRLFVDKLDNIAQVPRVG

Variants of: B1
Details: Hordeum vulgare; pH 6.25; 25 °C; GdnHCl; Fluorescence; MES 50 mM; structure 2CI2; whole UniProt chain shown
RECORDED_ENDPOINT: denaturant midpoint (higher = more stable) (M)
# output: bare number, implied unit M

S32G :: 3.59
E34D :: 3.73
E35Q :: 3.76

For the variant E34Q , what denaturant midpoint (higher = more stable) is on record?
3.85

Now this one: S32G E34A E35A
3.16

Now this one: S32A E34A E35A
3.14

All values here come from FireProtDB (doi:10.1093/protein/7.6.777).
